Tested on: U-251
Assay: NCI tumour cell line growth inhibition, 48 h
The source made the active and inactive calls. Rule as the data show it: active = GI50 up to about 1.1 µM and inactive = higher.
# GI50 annotations

COMPOUND | ASSAY_READOUT | TEST_VALUE
N#C/C(=C1\OC(=N)C(c2ccc(Cl)cc2)=C1O)c1ccc(Cl)cc1 | GI50 | 15.3 µM (inactive)

What reported GI50 corresponds to `Cc1cc2ccccc2n1CC(=O)N1CCCC1` on U-251? > 100 µM (inactive)

Fill in the recorded GI50 for this compound, with U-251 as test system: CCCCN(CCCC)C(=O)C(=O)C(C#N)c1ccc(C)cc1 (stereo not drawn) > 100 µM (inactive)

Any idea what GI50 came out for CCOC(=O)C1(Cc2ccccc2)Cc2cc3c(cc2C1=O)CCC3 (stereo not drawn) on U-251? > 100 µM (inactive)

Fill in the recorded GI50 for this compound, with U-251 as test system: `CCOC(=O)C1(C(=O)OCC)[C@H](c2ccccc2)C2=NO[C@@H]3CCC[C@H]1[C@H]23` 49.9 µM (inactive)

# get_value(readout= GI50, system= U-251) for `COc1ccn(CC(=O)c2cc3ccccc3[nH]2)c(=O)n1` > 100 µM (inactive)

Record `Cc1ccc(C2=C(c3ccccc3)C(Br)(c3ccc(C)cc3)C(c3ccccc3)=C2c2ccc(C)cc2)cc1` : what is its GI50 with U-251? > 100 µM (inactive)

What reported GI50 corresponds to `CCC(=O)NC(Nc1cc(C)on1)(C(F)(F)F)C(F)(F)F` on U-251? > 100 µM (inactive)

Please state recorded GI50 (tested on U-251) of O=C1N2CCc3c([nH]c4ccccc34)C23CC2CCCCC12S3 (stereo not drawn) > 100 µM (inactive)

Provide value of GI50 for this record tested with U-251: C=CC(=O)NCCSCCCOC1(C(=O)O)CC(O)C(NC(C)=O)C(C(O)C(O)CO)O1 (stereo not drawn) > 100 µM (inactive)

Give the reported GI50 for CC1Cc2c(N)nc(N3CCOCC3)nc2NC1=O (stereo not drawn) (system: U-251). > 100 µM (inactive)

Find GI50 (U-251) for the entry `Cn1cnc([N+](=O)[O-])c1Sc1nc2cc([N+](=O)[O-])ccc2[nH]1` 27 µM (inactive)

So what GI50 did `Cc1cc(NC2=NCCO2)c2c(c1C)CCCC2` get with U-251? 18.5 µM (inactive)

----------
Test system: MDA-MB-231
Experiment: NCI tumour cell line growth inhibition, 48 h
Active and inactive are the calls of the source. Cut-off read from the data, not from the text of the source: active = GI50 up to about 1.1 µM and inactive = higher.
Write down one outcome, taken from t for active, f for inactive

COMPOUND | ASSAY_SYSTEM | CATEGORY_LABEL
CCSc1ncnc2c(C3OC(CO)C(O)C3O)nsc12 (centres undefined) | MDA-MB-231 | f
O=C(NCCNCCCNC(=O)c1cc(-c2ccccc2)nc2ccccc12)c1cccc(OCc2ccccc2)c1OCc1ccccc1 | MDA-MB-231 | f
C=CC(Br)(CBr)CCC(Cl)C(C)C (centres undefined) | MDA-MB-231 | f

Status in this test for `COC(=O)c1c[nH]c2c1-c1cc(C(=O)OCc3ccccc3)n(S(=O)(=O)c3ccc(C)cc3)c1C(=O)C2=O` ? t

----------
System: SW-620
Test: NCI tumour cell line growth inhibition, 48 h
The source made the active and inactive calls. No stated cut-off is given here; in the data, active = GI50 up to about 1.1 µM and inactive = higher.
Below, each entry is listed with its recorded GI50.

Example cases with answers are listed next.
MOLECULE | ASSAY_SYSTEM | GI50
CSc1nc(NC(=O)O)c(N(C(C)=O)C(=O)O)c(=O)n1C | SW-620 | > 100 µM (inactive)
CN(C)C(=S)SCc1ccccc1 | SW-620 | > 100 µM (inactive)
CC(=O)NC(CCCOC(C)=O)C(=O)NC(CCCOC(C)=O)C(=O)NC(CCCOC(C)=O)C(=O)NC(Cc1ccc([N+](=O)[O-])cc1)C(=O)NCC(=O)OCc1ccccc1 (configuration not stated) | SW-620 | > 100 µM (inactive)
O=C1c2cc([N+](=O)[O-])sc2C(=O)c2cc([N+](=O)[O-])sc21 | SW-620 | 1.72 µM (inactive)
CCCCCCCCCCCCCCCCCC[N+](C)(C)Cc1ccc(C[N+](C)(C)CCCCCCCCCCCCCCCCCC)cc1 | SW-620 | 18.2 µM (inactive)

// lookup GI50 for CCCCN=C(OC1C=CCCC1)SC (configuration not stated) > 100 µM (inactive)

Quick one: GI50 for COc1ccc2c(c1)C(=O)C1(C2)[C@H](c2ccccc2)C2C(=O)c3cc(OC)ccc3C2[C@H]1c1ccccc1 (some centres not stated) ? > 100 µM (inactive)
